# inhibition at 1 µM per entry
Target: human AR (Homo sapiens, UniProt P10275)
Construct: expressed in transfected cells; host or cells: HeLa13 (HeLa 13)
Sequence (P10275 whole entry): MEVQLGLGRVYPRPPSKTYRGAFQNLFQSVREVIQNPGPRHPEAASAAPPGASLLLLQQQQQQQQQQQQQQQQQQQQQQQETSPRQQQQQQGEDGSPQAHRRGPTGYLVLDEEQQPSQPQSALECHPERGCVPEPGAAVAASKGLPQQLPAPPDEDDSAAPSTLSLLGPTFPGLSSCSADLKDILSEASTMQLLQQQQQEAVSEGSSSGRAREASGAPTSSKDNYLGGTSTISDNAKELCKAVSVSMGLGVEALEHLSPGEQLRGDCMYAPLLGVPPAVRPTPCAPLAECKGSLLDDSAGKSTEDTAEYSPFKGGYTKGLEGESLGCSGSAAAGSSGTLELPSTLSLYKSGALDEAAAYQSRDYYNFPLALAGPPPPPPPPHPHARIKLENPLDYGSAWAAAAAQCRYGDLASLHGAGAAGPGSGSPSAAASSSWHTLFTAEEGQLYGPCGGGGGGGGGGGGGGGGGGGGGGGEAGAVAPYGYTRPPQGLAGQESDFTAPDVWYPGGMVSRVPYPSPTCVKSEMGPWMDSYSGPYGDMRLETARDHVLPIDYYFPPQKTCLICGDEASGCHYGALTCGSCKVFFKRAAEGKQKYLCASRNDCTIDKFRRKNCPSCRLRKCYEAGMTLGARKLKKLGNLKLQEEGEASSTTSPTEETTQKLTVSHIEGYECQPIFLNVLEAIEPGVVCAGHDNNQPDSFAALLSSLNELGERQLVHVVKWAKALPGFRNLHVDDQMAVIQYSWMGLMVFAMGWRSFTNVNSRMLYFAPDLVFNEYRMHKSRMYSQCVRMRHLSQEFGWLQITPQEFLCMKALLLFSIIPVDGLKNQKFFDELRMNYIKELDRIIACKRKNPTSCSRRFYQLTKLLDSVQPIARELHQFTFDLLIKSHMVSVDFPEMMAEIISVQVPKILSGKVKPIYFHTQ
Test: AR-mediated induction of PSA-luciferase reporter by R1881 in HeLa13 cells
Type: cell-based
Settings: read-out: % Inhibition of AR-Mediated Gene Induction
Protocol: The engineered T47D breast cancer cell lines employed for the assessment of flavonoid activity on glucocorticoid receptor (GR) and progesterone receptor (PR) signaling permitted the facile quantitation transcription of both an endogenous gene and a stably integrated reporter gene. […] For all cell lines, cell harvesting and the luminescence assay for alkaline phosphatase and/or luciferase were performed as previously described in detail. […]
recordedMetric: inhibition at 1 µM (%)

[[record]]
molecule = "O=C1CC(c2ccc(O)c(O)c2)Oc2cc(O)cc(O)c21 (stereo not shown) [5,7,3′,4′-tetrahydroxyflavanone]"
measuredon = "human AR (Homo sapiens, UniProt P10275)"
recordedmetric = "inhibition at 1 µM"
u = "%"
valuereported = 13

[[record]]
molecule = "COc1ccc([C@@H]2CC(=O)c3c(O)cc(O)cc3O2)cc1O"
measuredon = "human AR (Homo sapiens, UniProt P10275)"
recordedmetric = "inhibition at 1 µM"
u = "%"
valuereported = -28

[[record]]
molecule = "O=c1cc(-c2ccc(O)c(O)c2)oc2cccc(O)c12 [5,3′,4′-trihydroxyflavone]"
measuredon = "human AR (Homo sapiens, UniProt P10275)"
recordedmetric = "inhibition at 1 µM"
u = "%"
valuereported = 29

[[record]]
molecule = "O=c1cc(-c2ccc(O)cc2)oc2cc(O)ccc12 [7,4′-dihydroxyflavone]"
measuredon = "human AR (Homo sapiens, UniProt P10275)"
recordedmetric = "inhibition at 1 µM"
u = "%"
valuereported = -18

